- TARGET OF ASSAY: ALK (Homo sapiens)
- Construct: host or cells: baculovirus expression system
- Sequence (Q9UM73 19-1620): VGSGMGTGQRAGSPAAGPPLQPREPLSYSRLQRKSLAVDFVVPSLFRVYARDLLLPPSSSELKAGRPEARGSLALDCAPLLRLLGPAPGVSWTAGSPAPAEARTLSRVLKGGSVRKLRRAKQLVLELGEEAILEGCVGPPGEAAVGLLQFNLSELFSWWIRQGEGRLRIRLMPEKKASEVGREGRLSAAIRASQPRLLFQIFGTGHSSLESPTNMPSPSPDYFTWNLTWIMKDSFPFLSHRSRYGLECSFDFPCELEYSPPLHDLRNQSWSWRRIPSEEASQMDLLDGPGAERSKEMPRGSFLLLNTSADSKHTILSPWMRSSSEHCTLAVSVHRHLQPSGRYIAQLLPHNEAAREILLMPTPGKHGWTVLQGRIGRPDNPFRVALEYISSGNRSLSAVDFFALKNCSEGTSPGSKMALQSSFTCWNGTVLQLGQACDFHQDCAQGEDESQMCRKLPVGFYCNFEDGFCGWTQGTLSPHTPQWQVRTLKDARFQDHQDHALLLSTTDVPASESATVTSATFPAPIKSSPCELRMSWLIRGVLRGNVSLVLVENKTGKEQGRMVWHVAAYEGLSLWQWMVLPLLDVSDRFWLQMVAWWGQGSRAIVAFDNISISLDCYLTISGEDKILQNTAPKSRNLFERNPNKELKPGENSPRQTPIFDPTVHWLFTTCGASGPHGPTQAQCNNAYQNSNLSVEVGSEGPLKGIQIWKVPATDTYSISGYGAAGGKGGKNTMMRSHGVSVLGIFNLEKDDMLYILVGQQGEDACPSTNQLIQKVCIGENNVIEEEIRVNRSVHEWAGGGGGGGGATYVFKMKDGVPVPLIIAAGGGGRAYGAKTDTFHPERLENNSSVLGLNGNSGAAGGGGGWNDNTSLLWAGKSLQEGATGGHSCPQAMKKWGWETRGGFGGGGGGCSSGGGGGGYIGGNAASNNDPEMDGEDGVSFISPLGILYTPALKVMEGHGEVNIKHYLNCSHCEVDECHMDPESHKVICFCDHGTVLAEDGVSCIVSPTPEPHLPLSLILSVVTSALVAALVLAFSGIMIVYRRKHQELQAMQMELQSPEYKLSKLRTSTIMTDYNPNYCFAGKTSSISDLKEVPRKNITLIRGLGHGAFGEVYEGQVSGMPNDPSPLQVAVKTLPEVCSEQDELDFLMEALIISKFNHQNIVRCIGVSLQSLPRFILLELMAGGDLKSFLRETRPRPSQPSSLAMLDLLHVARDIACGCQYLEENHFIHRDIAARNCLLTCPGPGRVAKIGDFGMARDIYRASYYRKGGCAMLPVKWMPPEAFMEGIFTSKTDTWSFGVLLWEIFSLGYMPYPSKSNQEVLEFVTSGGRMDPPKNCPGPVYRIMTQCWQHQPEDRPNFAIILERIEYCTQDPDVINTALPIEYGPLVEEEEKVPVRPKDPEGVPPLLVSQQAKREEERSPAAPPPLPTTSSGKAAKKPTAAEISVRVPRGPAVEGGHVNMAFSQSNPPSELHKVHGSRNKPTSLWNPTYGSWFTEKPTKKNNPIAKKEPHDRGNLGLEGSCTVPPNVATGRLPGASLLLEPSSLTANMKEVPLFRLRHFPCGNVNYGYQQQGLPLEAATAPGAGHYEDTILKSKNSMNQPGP
- METHOD DESCRIPTION: ALK Kinase Assay (ELISA/TRF, PLC-γ substrate)
- Assay type: biochemical
- CONDITION SET: ALK kinase inhibition, 1 μM ATP; read-out: ALK Potency
pIC50: −log10 of the molar value.
Each item that follows carries a reported pIC50.

Observe how each entry below is paired with its result.
# MOLECULE, pIC50
measured = [
    ("COc1cc(C2CCN(CCO)CC2)ccc1Nc1ncc2ccc(-c3cccc(S(=O)(=O)NC(C)(C)C)c3)n2n1", "> 7.00"),
    ("CCN1CCOC(c2ccc(Nc3ncc4ccc(-c5cccc(NS(C)(=O)=O)c5)n4n3)cc2)C1 (stereo not shown)", "6.00 to 7.00"),
    ("CN1CCC(c2ccc(Nc3ncc4ccc(-c5ccccc5N(C)S(C)(=O)=O)n4n3)cc2)CC1", "> 7.00"),
    ("COc1cc2c(cc1Nc1ncc3ccc(-c4cccc(S(=O)(=O)NC5CC5)c4)n3n1)CCN(C[C@@H](C)O)CC2", "> 7.00"),
    ("COc1ccccc1-c1ccc2cnc(Nc3ccc(C4CC5CCC(C4)N5C)cc3)nn12 (stereo not shown)", "> 7.00"),
]

Tested on ALK (Homo sapiens): `CN1C(=O)COc2cc(Nc3ncc4ccc(-c5cccc(S(=O)(=O)NC(C)(C)C)c5)n4n3)ccc21` . Observed pIC50: 6.00 to 7.00

The recorded pIC50 with ALK (Homo sapiens) for `COc1ccc(-c2ccc3cnc(Nc4ccc5c(c4)COCCN5C)nn23)cn1` was 5.00 to 6.00
